# test-settings: in n-butanol, 298.15 K
property-label: solubility (mole fraction)
Just the number.

Lab note: measured solubility (mole fraction) of O=C(O)c1ccccc1Nc1ccccc1 was 0.0187

###

# test-settings: in n-butanol, 288.15 K
property-label: solubility (mole fraction)

Lab note: measured solubility (mole fraction) of O=C(O)c1ccccc1Nc1ccccc1 was 0.0112

###

# test-settings: in acetonitrile, 298.15 K
property-label: solubility (mole fraction)

Lab note: measured solubility (mole fraction) of O=C(O)c1ccccc1Nc1ccccc1 was 0.00373

###

# test-settings: in isopropanol, 293.15 K
property-label: solubility (mole fraction)

Lab note: measured solubility (mole fraction) of O=C(O)c1ccccc1Nc1ccccc1 was 0.0107

###

# test-settings: in n-butanol, 285.65 K
property-label: solubility (mole fraction)
Just the number.

Lab note: measured solubility (mole fraction) of O=C(O)c1ccccc1Nc1ccccc1 was 0.00972

###

# test-settings: in acetone, 310.65 K
property-label: solubility (mole fraction)
Just the number.

Lab note: measured solubility (mole fraction) of O=C(O)c1ccccc1Nc1ccccc1 was 0.0499

###

# test-settings: in n-propanol, 303.15 K
property-label: solubility (mole fraction)
Just the number.

Lab note: measured solubility (mole fraction) of O=C(O)c1ccccc1Nc1ccccc1 was 0.0216

###

# test-settings: in acetone, 288.15 K
property-label: solubility (mole fraction)
Just the number.

Lab note: measured solubility (mole fraction) of O=C(O)c1ccccc1Nc1ccccc1 was 0.0223

###

# test-settings: in ethanol, 315.65 K
property-label: solubility (mole fraction)
Just the number.

Lab note: measured solubility (mole fraction) of O=C(O)c1ccccc1Nc1ccccc1 was 0.0339

###

# test-settings: in ethyl acetate, 283.15 K
property-label: solubility (mole fraction)
Just the number.

Lab note: measured solubility (mole fraction) of O=C(O)c1ccccc1Nc1ccccc1 was 0.012

###

# test-settings: in ethanol, 298.15 K
property-label: solubility (mole fraction)
Just the number.

Lab note: measured solubility (mole fraction) of O=C(O)c1ccccc1Nc1ccccc1 was 0.0152

###

# test-settings: in n-propanol, 318.15 K
property-label: solubility (mole fraction)

Lab note: measured solubility (mole fraction) of O=C(O)c1ccccc1Nc1ccccc1 was 0.0383

###

# test-settings: in isopropanol, 315.65 K
property-label: solubility (mole fraction)
Just the number.

Lab note: measured solubility (mole fraction) of O=C(O)c1ccccc1Nc1ccccc1 was 0.0309

###

# test-settings: in ethyl acetate, 313.15 K
property-label: solubility (mole fraction)
Just the number.

Lab note: measured solubility (mole fraction) of O=C(O)c1ccccc1Nc1ccccc1 was 0.0503

###

# test-settings: in n-propanol, 300.65 K
property-label: solubility (mole fraction)
Just the number.

Lab note: measured solubility (mole fraction) of O=C(O)c1ccccc1Nc1ccccc1 was 0.0194
